system: 817829-284-R-J1-PDC complex spheroids, viability; experiment: Anticancer human tumor 817829-284-R-J1-PDC patient-derived colon adenocarcinoma cell line growth inhibition [GQUAD]; conditions: second compound 3.16 µM; first compound 3.16 µM; active = viability on the fitted dose curve at most 10% of control; inactive = the rest
Outcome (select one): 1.0 for active, 0.0 for inactive

Look over these answered cases.
# Compound, Class Assignment
records = [
    ("COc1ncnc(C2CC2)c1-c1ncc2cnn(Cc3ccc(-c4nc(C(F)(F)F)cn4C(C)C)cc3)c2n1 + Cc1[nH]c2ccc(F)cc2c1-c1nc2c3cccnc3c3ncccc3c2[nH]1", 0.0),
    ("CC1COCCN1c1cc(C2(O)CC3CCC(C2)O3)c2cnn(-c3ccn[nH]3)c2n1 (stereo not drawn) + CN(C)c1ccc(Nc2c3ccc(NC(=O)CCN4CCCC4)cc3nc3cc(NC(=O)CCN4CCCC4)ccc23)cc1", 1.0),
]

Request: Tell me the assay call for Nc1ccn(C2OC(CO)C(O)C2(F)F)c(=O)n1 (stereo not drawn) + Cc1[nH]c2ccc(F)cc2c1-c1nc2c3cccnc3c3ncccc3c2[nH]1 please.
Response: 1.0

* * *

system: 817829-284-R-J1-PDC complex spheroids, viability; assay: Anticancer human tumor 817829-284-R-J1-PDC cell line growth inhibition [GQUAD]; settings: curve of first compound; second compound 1 µM;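 note: spheroids exposed to agents for 7 days before readout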
pIC50: −log10 of the molar value.
Measurement Type: pIC50

Examples with answers:
# Compound, pIC50
data = [
    ("CC1COCCN1c1cc(C2(O)CC3CCC(C2)O3)c2cnn(-c3ccn[nH]3)c2n1 (stereo not given) + CN(C)c1ccc(Nc2c3ccc(NC(=O)CCN4CCCC4)cc3nc3cc(NC(=O)CCN4CCCC4)ccc23)cc1", "> 7.50"),
    ("CC(C)n1c(=O)n(C)c2cnc3cc(F)c(-c4ccc(OCCCN5CCCCC5)nc4)cc3c21 + Cc1cnc(CNC(=O)c2c(=O)c3ccc(N4CCCN(C)CC4)nc3n3c2sc2ccccc23)cn1", "> 7.50"),
    ("O=C(NO)c1cnc(N2CCN(S(=O)(=O)c3ccc4ccccc4c3)CC2)nc1 + Cc1cnc(CNC(=O)c2c(=O)c3ccc(N4CCCN(C)CC4)nc3n3c2sc2ccccc23)cn1", "> 7.50"),
    ("CC1COCCN1c1cc(C2(O)CC3CCC(C2)O3)c2cnn(-c3ccn[nH]3)c2n1 (stereo not given) + Cc1cnc(CNC(=O)c2c(=O)c3ccc(N4CCCN(C)CC4)nc3n3c2sc2ccccc23)cn1", "> 7.50"),
]

// moving on: another record for pIC50
Request: Request the reported pIC50 associated with C#Cc1c(F)ccc2cc(O)cc(-c3ncc4c(N5CC6CCC(C5)N6)nc(OCC56CCCN5CC(F)C6)nc4c3F)c12 (stereo not given) + Cc1[nH]c2ccc(F)cc2c1-c1nc2c3cccnc3c3ncccc3c2[nH]1
Response: 5.25

* * *

test system: 817829-284-R-J1-PDC complex spheroids, viability; assay: Anticancer human tumor 817829-284-R-J1-PDC cell line growth inhibition [GQUAD]; details: second compound 0.0316 µM; first compound 0.0316 µM; stronger effect = lower value;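 note: spheroids exposed to agents for 7 days before readout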;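 for viability, T/C: percent viability relative to DMSO vehicle control taken as 100%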
Measurement Type: viability, T/C (%)
# value in %; strip the unit string

Examples with answers:
# Compound, Measurement Type, Result Number
records = [
    ("C=CCn1c(=O)c2cnc(Nc3ccc(N4CCN(C)CC4)cc3)nc2n1-c1cccc(C(C)(C)O)n1 + CN(C)c1ccc(Nc2c3ccc(NC(=O)CCN4CCCC4)cc3nc3cc(NC(=O)CCN4CCCC4)ccc23)cc1", "viability, T/C", 99.2),
    ("Cn1ncnc1[C@H]1c2n[nH]c(=O)c3cc(F)cc(c23)N[C@@H]1c1ccc(F)cc1 + Cc1[nH]c2ccc(F)cc2c1-c1nc2c3cccnc3c3ncccc3c2[nH]1", "viability, T/C", 82.2),
    ("CC1COCCN1c1cc(C2(S(C)(=N)=O)CC2)nc(-c2ccnc3[nH]ccc23)n1 (stereo not given) + Cc1[nH]c2ccc(F)cc2c1-c1nc2c3cccnc3c3ncccc3c2[nH]1", "viability, T/C", 110),
    ("CC1COCCN1c1cc(C2(O)CC3CCC(C2)O3)c2cnn(-c3ccn[nH]3)c2n1 (stereo not given) + Cc1cnc(CNC(=O)c2c(=O)c3ccc(N4CCCN(C)CC4)nc3n3c2sc2ccccc23)cn1", "viability, T/C", 12.8),
]

// moving on: another record for viability, T/C
Request: Request the reported viability, T/C associated with CC[C@@]1(O)C(=O)OCc2c1cc1n(c2=O)Cc2cc3c(CN(C)C)c(O)ccc3nc2-1 + Cc1cnc(CNC(=O)c2c(=O)c3ccc(N4CCCN(C)CC4)nc3n3c2sc2ccccc23)cn1
Response: 33.9
